- TARGET DESC: T1, USP33 DUSP2 domain, tag cleaved (for FP) (human, UniProt Q8TEY7 1-942)
- T1 chain: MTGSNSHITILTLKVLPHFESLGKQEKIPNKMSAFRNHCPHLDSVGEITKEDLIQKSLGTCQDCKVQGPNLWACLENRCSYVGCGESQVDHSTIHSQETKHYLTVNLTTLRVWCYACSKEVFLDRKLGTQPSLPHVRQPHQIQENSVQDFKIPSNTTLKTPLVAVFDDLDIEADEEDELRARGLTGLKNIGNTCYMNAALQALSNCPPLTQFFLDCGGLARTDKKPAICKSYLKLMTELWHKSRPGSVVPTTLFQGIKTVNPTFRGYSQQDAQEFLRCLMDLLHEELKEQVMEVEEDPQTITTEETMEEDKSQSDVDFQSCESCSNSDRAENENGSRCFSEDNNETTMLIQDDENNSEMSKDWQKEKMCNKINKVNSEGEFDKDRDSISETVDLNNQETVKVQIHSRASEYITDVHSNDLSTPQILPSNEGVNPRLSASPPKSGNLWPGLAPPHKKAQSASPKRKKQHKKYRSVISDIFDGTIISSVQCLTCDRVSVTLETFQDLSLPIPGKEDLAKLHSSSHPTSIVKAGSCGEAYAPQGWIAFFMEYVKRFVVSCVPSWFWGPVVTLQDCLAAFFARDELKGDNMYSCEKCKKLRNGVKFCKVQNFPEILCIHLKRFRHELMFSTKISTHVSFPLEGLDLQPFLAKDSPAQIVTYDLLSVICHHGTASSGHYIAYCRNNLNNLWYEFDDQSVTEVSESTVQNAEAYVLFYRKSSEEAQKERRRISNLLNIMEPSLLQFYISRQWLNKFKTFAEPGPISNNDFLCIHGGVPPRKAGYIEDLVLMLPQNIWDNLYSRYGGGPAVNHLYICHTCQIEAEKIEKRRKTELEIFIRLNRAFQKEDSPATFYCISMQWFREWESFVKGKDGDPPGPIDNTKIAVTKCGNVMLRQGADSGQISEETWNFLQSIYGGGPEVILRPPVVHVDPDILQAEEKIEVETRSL
- TEST DETAILS: FP
PARAMETER: pKd
Give bare numbers, as −log10 of the molar value.

Ac-DVVDDFQLQHRHGPG-NH2 [MFSD2B_(395-409) peptide] ... 6.10

Then this binder:
Lookup result for Ac-QLEEELFQLRQGPAG-NH2 [CCDC88B_(947-961) peptide] ; measured pKd: 4.40
